For each entry below, report its Bactericidal activity (%) Fusarium fujikuroi value.
system: Fusarium fujikuroi; test: Fungicidal (bactericidal) activity in vitro, PDA colony diameter; format: cell-based; details: 50 mg/kg
Answers are plain numbers, in %.

Reference set, count: 8
Q. // fetch Bactericidal activity (%) Fusarium fujikuroi given entry CCOC(=O)c1cc2c([nH]c3ccccc32)c(C)n1 [Ia-10]
A. 35.7

Q. // fetch Bactericidal activity (%) Fusarium fujikuroi given entry C[C@@H]1N[C@H](C(=O)NN=Cc2ccc3cc(O)ccc3c2)Cc2c1[nH]c1ccccc21 [Ic-14]
A. 28.6

Q. // fetch Bactericidal activity (%) Fusarium fujikuroi given entry CCOC(=O)[C@@H]1Cc2c([nH]c3ccccc23)[C@H](CC)N1 [Ib-10]
A. 35.7

Q. // fetch Bactericidal activity (%) Fusarium fujikuroi given entry C[C@@H]1N[C@H](C(=O)NN=Cc2ccc([N+](=O)[O-])cc2)Cc2c1[nH]c1ccccc21 [Ic-4]
A. 42.9

Q. // fetch Bactericidal activity (%) Fusarium fujikuroi given entry C[C@@H]1N[C@H](C(=O)NCC2CCCO2)Cc2c1[nH]c1ccccc21 (stereo partly drawn) [Ib-20]
A. 21.4

Q. // fetch Bactericidal activity (%) Fusarium fujikuroi given entry CCCC=NNC(=O)[C@@H]1Cc2c([nH]c3ccccc23)[C@H](C)N1 [Ic-23]
A. 0.0

Q. // fetch Bactericidal activity (%) Fusarium fujikuroi given entry O=C(O)/C=C/c1cc2c([nH]c3ccccc32)c(-c2cccs2)n1 [Ia-15]
A. 64.3

Q. // fetch Bactericidal activity (%) Fusarium fujikuroi given entry C[C@@H]1N[C@H](C(=O)NN=Cc2ccc(Cl)cc2)Cc2c1[nH]c1ccccc21 [Ic-5]
A. 64.3

Provide Bactericidal activity (%) Fusarium fujikuroi for all items below, preserving their order.
1. C[C@@H]1N[C@H](C(=O)NN=Cc2ccncc2)Cc2c1[nH]c1ccccc21 [Ic-15]
2. C[C@@H]1N[C@H](C(=O)NN=Cc2cccs2)Cc2c1[nH]c1ccccc21 [Ic-20]
3. COc1ccc(C=NNC(=O)[C@@H]2Cc3c([nH]c4ccccc34)[C@H](C)N2)cc1 [Ic-8]

A.
1. 21.4
2. 28.6
3. 64.3

Q. // fetch Bactericidal activity (%) Fusarium fujikuroi given entry COc1ccccc1C=NNC(=O)[C@@H]1Cc2c([nH]c3ccccc23)[C@H](C)N1 [Ic-10]
A. 21.4

All values here come from patent US10208033B2.
